target: 2,3-epoxysqualene-lanosterol cyclase (Candida albicans, UniProt Q04782); construct: there was obtained a cell-free extract (CFE) as the supernatant; endogenous in cells; host or cells: Candida albicans culture, protoplasts ruptured, cell-free extract (10000 g supernatant); assay: inhibition of 2,3-epoxysqualene-lanosterol cyclase from Candida albicans (cell-free extract, 14C-squalene epoxide); type: biochemical
Sequence (Q04782 whole entry): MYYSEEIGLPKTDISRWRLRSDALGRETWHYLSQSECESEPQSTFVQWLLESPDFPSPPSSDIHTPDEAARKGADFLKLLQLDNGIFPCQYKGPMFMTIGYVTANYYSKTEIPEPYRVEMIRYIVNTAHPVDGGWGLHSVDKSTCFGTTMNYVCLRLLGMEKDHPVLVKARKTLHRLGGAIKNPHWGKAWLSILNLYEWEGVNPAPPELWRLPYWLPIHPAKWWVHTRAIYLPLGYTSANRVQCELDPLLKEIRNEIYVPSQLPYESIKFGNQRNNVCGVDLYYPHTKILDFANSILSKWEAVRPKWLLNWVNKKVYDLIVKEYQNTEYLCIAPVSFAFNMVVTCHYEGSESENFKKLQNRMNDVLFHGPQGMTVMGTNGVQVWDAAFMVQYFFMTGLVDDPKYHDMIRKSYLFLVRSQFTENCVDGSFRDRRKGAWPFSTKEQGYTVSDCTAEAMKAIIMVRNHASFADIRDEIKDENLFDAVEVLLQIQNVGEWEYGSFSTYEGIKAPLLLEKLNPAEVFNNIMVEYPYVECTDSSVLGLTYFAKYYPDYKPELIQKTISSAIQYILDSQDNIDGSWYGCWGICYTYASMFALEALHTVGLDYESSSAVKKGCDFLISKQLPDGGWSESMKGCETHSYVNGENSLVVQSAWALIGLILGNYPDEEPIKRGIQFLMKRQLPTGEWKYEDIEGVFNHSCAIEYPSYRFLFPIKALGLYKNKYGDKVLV
Counter-ions that a name gives are not always drawn.
measured-endpoint: pIC50
Reminder that pIC50 means the negative base-10 logarithm of the concentration expressed in mol/L.

Example cases with answers are listed next.
> print(dat)
                                   molecule                               test.system  number
1  C=CCN(C)C(C)c1ccc(-c2ccc(C(=O)c3ccccc3)cc2)cc1 (racemic) [Compound 18, hydrochloride]  2,3-epoxysqualene-lanosterol cyclase (Candida albicans, UniProt Q04782)    7.05
2  C=CCN(C)Cc1ccc(-c2ccc(C(=O)CCCCCCCCO)cc2)cc1 [Compound 40, fumarate]  2,3-epoxysqualene-lanosterol cyclase (Candida albicans, UniProt Q04782)    7.75
3  C=CCN(C)Cc1ccc(-c2ccc(C(=O)c3ccc(F)cc3F)cc2)cc1  2,3-epoxysqualene-lanosterol cyclase (Candida albicans, UniProt Q04782)    7.67
4  C=CCN(C)Cc1ccc(-c2ccc(C(=O)c3ccc4ccccc4c3)cc2)cc1 [Compound 23, hydrochloride]  2,3-epoxysqualene-lanosterol cyclase (Candida albicans, UniProt Q04782)    6.39
5  C=CCN(C)Cc1ccc(-c2ccc(C(=O)CCC=C(C)C)cc2)cc1  2,3-epoxysqualene-lanosterol cyclase (Candida albicans, UniProt Q04782)    7.59
6  C=CCN(C)Cc1ccc(-c2ccc(C(=O)c3cccc4ccccc34)cc2)cc1 [Compound 22, hydrochloride]  2,3-epoxysqualene-lanosterol cyclase (Candida albicans, UniProt Q04782)    6.36
7  C=CCN(C)Cc1ccc(-c2ccc(C(=O)c3ccc(F)cc3)cc2)cc1 [Compound 15, hydrochloride]  2,3-epoxysqualene-lanosterol cyclase (Candida albicans, UniProt Q04782)    7.00
8  C=CCN(C)Cc1ccc(-c2ccc(C(=O)c3ccccc3)cc2)cc1 [Compound 14, hydrochloride]  2,3-epoxysqualene-lanosterol cyclase (Candida albicans, UniProt Q04782)    7.28
9  C=CCN(C)Cc1ccc(-c2ccc(C(=O)c3ccc(C#N)cc3)cc2)cc1 [Compound 19, hydrochloride]  2,3-epoxysqualene-lanosterol cyclase (Candida albicans, UniProt Q04782)    6.96

# input # get_value(readout= pIC50, system= 2,3-epoxysqualene-lanosterol cyclase (Candida albicans, UniProt Q04782)) for C=CCN(C)Cc1ccc(-c2ccc(C(=O)CCCCC)cc2)cc1 [Compound 38, hydrochloride]
# output 7.20

###

tested on: C. albicans B4
Counter-ions that a name gives are not always drawn.
measured-endpoint: MIC (µg/mL)
Write the answer as a number in µg/mL, unit excluded.

Example cases with answers are listed next.
> print(dat)
                                   compound  measured.endpoint  units.of.measure  number
1  CN(C/C=C/C#CC(C)(C)C)Cc1cccc2ccccc12 [terbinafine, reference compound]                MIC             µg/mL     100
2  C=CCN(C)Cc1ccc(-c2ccc(C(=O)c3ccccc3)cc2)cc1 [Compound 14, hydrochloride]                MIC             µg/mL       2
3  CC(=O)N1CCN(c2ccc(OCC3COC(Cn4ccnc4)(c4ccc(Cl)cc4Cl)O3)cc2)CC1 (stereo not shown) [ketoconazole, reference compound]                MIC             µg/mL     2.5

Please look at the following compound next.
# input # get_value(readout= MIC, system= C. albicans B4) for C=CCN(C)Cc1ccc(-c2ccc(C(=O)c3ccc(Br)cc3)cc2)cc1 [Compound 20, hydrochloride]
# output 2

###

assay: acute toxicity, single oral administration to mice; details: mouse, in vivo
Where a name gives a salt, the structure may show the parent alone.
measured-endpoint: LD50

# input LD50 lookup needed for C=CCN(C)Cc1ccc(-c2ccc(C(=O)c3ccccc3)cc2)cc1 [Compound 14, hydrochloride] , thanks.
# output > 4000 mg/kg

###

target: 2,3-epoxysqualene-lanosterol cyclase (Candida albicans); construct: there was obtained a cell-free extract (CFE) as the supernatant; endogenous in cells; host or cells: Candida albicans culture, protoplasts ruptured, cell-free extract (10000 g supernatant); assay: inhibition of 2,3-epoxysqualene-lanosterol cyclase from Candida albicans (cell-free extract, 14C-squalene epoxide); format: biochemical; settings: cell-free extract, pH 6.9, 30° C., 1 hour; read-out: IC50 (converted)
Counter-ions that a name gives are not always drawn.
measured-endpoint: IC50 (nM)
Write the answer as a number in nM, unit excluded.

Example cases with answers are listed next.
> print(dat)
                                   compound  number
1  C=CCN(C)Cc1ccc(-c2ccc(C(=O)c3ccc(Br)cc3)cc2)cc1 [Compound 20, hydrochloride]    30.9
2  CN(C)Cc1ccc(-c2ccc(C(=O)c3ccc(C#N)cc3)cc2)cc1 [Compound 11, hydrochloride]     170
3  CN(C)Cc1ccc(-c2ccc(C(=O)c3ccc([N+](=O)[O-])cc3)cc2)cc1 [Compound 5, hydrochloride]     290
4  CN(C)Cc1ccc(-c2ccc(C(=O)c3ccc(Br)cc3Br)cc2)cc1    50.7
5  C=CCN(C)Cc1ccc(-c2ccc(C(=O)c3ccccc3C)cc2)cc1 [Compound 34]    50.6
6  CN(C)Cc1ccc(-c2ccc(C(=O)c3ccc(Cl)cc3Cl)cc2)cc1 [Compound 4, hydrochloride]     200
7  CN(C)Cc1ccc(-c2ccc(C(=O)c3cccc4ccccc34)cc2)cc1 [Compound 12, hydrochloride]     771
8  CN(C)Cc1ccc(-c2ccc(C(=O)c3ccc(F)cc3)cc2)cc1 [Compound 3, hydrochloride]     300

# input IC50 lookup needed for CC(c1ccc(-c2ccc(C(=O)c3ccccc3)cc2)cc1)N(C)C (racemic) [Compound 2, hydrochloride] , thanks.
# output 219

# input IC50 lookup needed for `CN(C)Cc1ccc(-c2ccc(C(=O)c3ccc(F)cc3F)cc2)cc1` , thanks.
# output 82.5

# input IC50 lookup needed for CNCc1ccc(-c2ccc(C(=O)c3ccccc3)cc2)cc1 [Compound 26, hydrochloride] , thanks.
# output 592

# input IC50 lookup needed for CN(C)Cc1ccc(-c2ccc(C(=O)c3ccccc3)cc2)cc1 [Compound 1, hydrochloride] , thanks.
# output 284

# input IC50 lookup needed for CN(C)Cc1ccc(-c2ccc(C(=O)c3ccc(I)cc3)cc2)cc1 [Compound 10, hydrochloride] , thanks.
# output 98.4

# input IC50 lookup needed for CN(C)Cc1ccc(-c2ccc(C(=O)c3ccc(Br)cc3)cc2)cc1 [Compound 6, hydrochloride] , thanks.
# output 102

# input IC50 lookup needed for C=CCN(C)Cc1ccc(-c2ccc(C(=O)c3ccccc3C)cc2)cc1 [Compound 33] , thanks.
# output 33.8

# input IC50 lookup needed for C=CCN(C)Cc1ccc(-c2ccc(C(=O)c3ccc([N+](=O)[O-])cc3Cl)cc2)cc1 [Compound 24, hydrochloride] , thanks.
# output 26.1

# input IC50 lookup needed for CN(C)Cc1ccc(-c2ccc(C(=O)c3ccc4ccccc4c3)cc2)cc1 [Compound 13, hydrochloride] , thanks.
# output 522

# input IC50 lookup needed for CCN(C)Cc1ccc(-c2ccc(C(=O)c3ccccc3)cc2)cc1 [Compound 25, hydrochloride] , thanks.
# output 137

# input IC50 lookup needed for `COc1ccccc1C(=O)c1ccc(-c2ccc(CN(C)C)cc2)cc1` , thanks.
# output 550

# input IC50 lookup needed for `C=CCN(C)Cc1ccc(-c2ccc(C(=O)c3ccc(Cl)cc3Cl)cc2Cl)cc1` , thanks.
# output 58.5

# input IC50 lookup needed for CC(C)=CCCC(=O)c1ccc(-c2ccc(CN(C)C)cc2)cc1 [Compound 36, hydrochloride] , thanks.
# output 8.38

# input IC50 lookup needed for `C=CCN(C)Cc1ccc(-c2ccc(C(=O)c3ccc([N+](=O)[O-])cc3)cc2)cc1` , thanks.
# output 41.4

# input IC50 lookup needed for CCCCCC(=O)c1ccc(-c2ccc(CN(C)C)cc2)cc1 [Compound 35, hydrochloride] , thanks.
# output 89.6

# input IC50 lookup needed for CN(C)Cc1ccc(-c2ccc(C(=O)CCCCCCCCO)cc2)cc1 [Compound 37, hydrochloride] , thanks.
# output 42.1

# input IC50 lookup needed for C=CCN(C)Cc1ccc(-c2ccc(C(=O)c3ccc(Cl)cc3Cl)cc2)cc1 [Compound 16, hydrochloride] , thanks.
# output 39

###

IC50 listing for selected compounds.
target: 2,3-epoxysqualene-lanosterol cyclase (Candida albicans, UniProt Q04782); construct: there was obtained a cell-free extract (CFE) as the supernatant; endogenous in cells; host or cells: Candida albicans culture, protoplasts ruptured, cell-free extract (10000 g supernatant); assay: inhibition of 2,3-epoxysqualene-lanosterol cyclase from Candida albicans (cell-free extract, 14C-squalene epoxide); assay type: biochemical; settings: cell-free extract, pH 6.9, 30° C., 1 hour; read-out: IC50 (converted)
Where a name gives a salt, the structure may show the parent alone.
Write the answer as a number in nM, unit excluded.

# input IC50 lookup needed for CN(C)C(C)(C)c1ccc(-c2ccc(C(=O)c3ccccc3)cc2)cc1 [Compound 9, hydrochloride] , thanks.
# output 2500

# input IC50 lookup needed for CN(C)Cc1ccc(-c2ccc(C(=O)c3ccc([N+](=O)[O-])cc3Cl)cc2)cc1 [Compound 8, hydrochloride] , thanks.
# output 111

# input IC50 lookup needed for `C=CCN(C)Cc1ccc(-c2ccc(C(=O)c3ccc(Br)cc3Br)cc2)cc1` , thanks.
# output 40.1

# input IC50 lookup needed for `CN(C)Cc1ccc(-c2ccc(C(=O)c3ccc(Cl)cc3Cl)cc2Cl)cc1` , thanks.
# output 239
